- System: TK-10 renal
- PROTOCOL: NCI-60 one-dose screen, 48 h (100 = growth as untreated, 0 = no growth, -100 = all killed)
- ASSAY SETUP: 10 µM unless noted
About 83,000 compounds went through this panel and 20% of them were active in at least one assay; those are over-represented in the sample as a whole.
Decision: growth compared against 60%; not below it gives 1 (yes), below it gives 0 (no).

Some solved entries appear below for comparison.
MOLECULE	CLASS LABEL
COc1cccc2cc(N(C)c3nc(C)nc4ccsc34)ccc12	0 (no)
CN1CCN(Cc2ccc(C(=O)Nc3cncc(C#Cc4cnc5cccnn45)c3)cc2C(F)(F)F)CC1	1 (yes)
CN1C(=O)N(C)C2(c3ccccc3)n3c(s/c(=C\c4ccccc4)c3=O)=NNC12c1ccccc1 (centres undefined)	1 (yes)
O=C1c2ccccc2C(=O)c2c1ccc1[nH]c(CCl)nc21	0 (no)

// switching to the query molecule
Asked: Does the reported growth for COc1cc(C(=O)NN=C2c3ccccc3-c3ccccc32)cc(OC)c1OC fall at or above the 60% mark?
Given back: 0 (no)
